Cited source: patent US20260176352A1

molecular target: native full length human CB1 receptor (cannabinoid 1 receptor) (human, UniProt P21554 1-472); experiment: cell-based or functional assay
Sequence (P21554 whole entry): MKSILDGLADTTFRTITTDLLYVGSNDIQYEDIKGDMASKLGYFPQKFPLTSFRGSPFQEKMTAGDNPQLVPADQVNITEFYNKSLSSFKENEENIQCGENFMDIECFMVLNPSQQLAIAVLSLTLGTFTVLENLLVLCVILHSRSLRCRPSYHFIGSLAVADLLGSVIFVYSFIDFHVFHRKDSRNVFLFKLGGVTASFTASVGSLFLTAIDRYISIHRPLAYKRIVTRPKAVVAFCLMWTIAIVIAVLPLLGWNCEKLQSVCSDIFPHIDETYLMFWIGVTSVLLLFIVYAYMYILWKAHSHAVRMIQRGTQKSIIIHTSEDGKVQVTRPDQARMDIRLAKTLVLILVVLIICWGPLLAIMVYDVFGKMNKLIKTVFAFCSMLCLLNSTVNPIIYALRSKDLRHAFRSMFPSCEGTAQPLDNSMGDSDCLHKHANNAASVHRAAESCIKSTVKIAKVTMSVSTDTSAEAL
QUANTITY: Exp 3 IC50 (nM), cAMP antagonist assay
Param answer (str): number followed by unit.

Exp 3 IC50 (nM), cAMP antagonist assay for RY-HL-LC-C12 FACS4 (IgG4 S228P) (antibody, V domains shown) VH: QVQLVQSGAEVKKPGSSVKVSCKASGYEFSYYWMNWVRQAPGQGLEWMGQIYPGDGETKYAQKFQGRVTITADKSTSTAYMELSSLRSEDTAVYYCARSHGNYLPYWGQGTLVTVSS VL: EIVLTQSPATLSLSPGERATLSCRASQSVSSRYLHWYQQKPGQAPRLLIYSTSRLASGIPARFSGSGSGTDFTLTISRLEPEDFAVYYCHQYHRSPPTFGQGTKVEIKR is 43.1 nM
